// each record: one item and its Ki for UniProt:P30968
Sequence (P30968 whole entry): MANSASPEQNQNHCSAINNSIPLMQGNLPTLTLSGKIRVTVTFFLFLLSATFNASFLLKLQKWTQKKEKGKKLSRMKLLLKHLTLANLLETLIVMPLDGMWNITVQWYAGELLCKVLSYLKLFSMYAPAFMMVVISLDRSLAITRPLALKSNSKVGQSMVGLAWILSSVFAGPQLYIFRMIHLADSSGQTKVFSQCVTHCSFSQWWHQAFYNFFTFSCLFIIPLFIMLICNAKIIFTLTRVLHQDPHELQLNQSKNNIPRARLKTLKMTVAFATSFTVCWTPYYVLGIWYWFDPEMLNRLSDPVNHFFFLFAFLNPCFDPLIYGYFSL

molecule="COc1cc(Cl)c(-c2cnc(C(F)(F)F)cc2C#N)cc1S(=O)(=O)N(C)Cc1ccc(F)cc1 [Example 15-33]" assay_system=UniProt:P30968 test_readout=Ki reported_measurement="≤ 100 nM"
molecule="COc1cc(Cl)c(-c2cnc(C(F)(F)F)cc2C#N)cc1S(=O)(=O)N(C)c1ccccc1F [Example 15-12]" assay_system=UniProt:P30968 test_readout=Ki reported_measurement="≤ 100 nM"
molecule="Cc1cccc2c1N(S(=O)(=O)c1ccc(Cl)c(-c3cnc(C(F)(F)F)cc3C#N)c1)CCCO2 [Example 4-20]" assay_system=UniProt:P30968 test_readout=Ki reported_measurement="≤ 100 nM"
molecule="COc1cc(Cl)c(-c2cnc(C(F)(F)F)cc2C#N)cc1S(=O)(=O)N(C)CC(C)(C)C [Example 15-30]" assay_system=UniProt:P30968 test_readout=Ki reported_measurement="≤ 100 nM"

Hello, I would appreciate it if you could give Ki for each entry below.
1. Cc1cc(C(F)(F)F)nc(=O)n1-c1cc(S(=O)(=O)N2CCCCc3ccccc32)ccc1Cl [Example 13-1]
2. N#Cc1cc(C(F)(F)F)ncc1-c1cc(S(=O)(=O)N2CCCOc3ccccc32)ccc1Cl [Example 4-24]
3. COc1cc(Cl)c(-c2cnc(C(F)(F)F)cc2C#N)cc1S(=O)(=O)N(C)Cc1ccccc1F [Example 15-35]
4. N#Cc1cc(C(F)(F)F)ncc1-c1cc(S(=O)(=O)N2CCCCc3ccccc32)c(OCCCO)cc1Cl [Example 9-2]
5. Cc1cc(Cl)ncc1-c1cc(S(=O)(=O)N2CCC(C)(C)c3ccccc32)ccc1Cl [Example 4-5]
6. CN(c1ccccc1)S(=O)(=O)c1cc(-c2cnc(C(F)(F)F)cc2C#N)c(Cl)cc1OCC(=O)O [Example 19-1]

1: ≤ 100 nM; 2: ≤ 100 nM; 3: ≤ 100 nM; 4: ≤ 100 nM; 5: ≤ 100 nM; 6: ≤ 100 nM

Item under review: Cc1cc(C(F)(F)F)ncc1-c1cc(S(=O)(=O)N2CCCCc3ccccc32)ccc1Cl [Example 4-9] . Reported Ki?
≤ 100 nM
